molecular target: human recombinant Aminopeptidase N (Homo sapiens); assay: Measurement of APN activity (fluorogenic substrate (Ala)2-R110); format: biochemical; conditions: human recombinant APN approx. 5 nM, substrate 0.5 μM, pH 7.5
Sequence (P15144 whole entry): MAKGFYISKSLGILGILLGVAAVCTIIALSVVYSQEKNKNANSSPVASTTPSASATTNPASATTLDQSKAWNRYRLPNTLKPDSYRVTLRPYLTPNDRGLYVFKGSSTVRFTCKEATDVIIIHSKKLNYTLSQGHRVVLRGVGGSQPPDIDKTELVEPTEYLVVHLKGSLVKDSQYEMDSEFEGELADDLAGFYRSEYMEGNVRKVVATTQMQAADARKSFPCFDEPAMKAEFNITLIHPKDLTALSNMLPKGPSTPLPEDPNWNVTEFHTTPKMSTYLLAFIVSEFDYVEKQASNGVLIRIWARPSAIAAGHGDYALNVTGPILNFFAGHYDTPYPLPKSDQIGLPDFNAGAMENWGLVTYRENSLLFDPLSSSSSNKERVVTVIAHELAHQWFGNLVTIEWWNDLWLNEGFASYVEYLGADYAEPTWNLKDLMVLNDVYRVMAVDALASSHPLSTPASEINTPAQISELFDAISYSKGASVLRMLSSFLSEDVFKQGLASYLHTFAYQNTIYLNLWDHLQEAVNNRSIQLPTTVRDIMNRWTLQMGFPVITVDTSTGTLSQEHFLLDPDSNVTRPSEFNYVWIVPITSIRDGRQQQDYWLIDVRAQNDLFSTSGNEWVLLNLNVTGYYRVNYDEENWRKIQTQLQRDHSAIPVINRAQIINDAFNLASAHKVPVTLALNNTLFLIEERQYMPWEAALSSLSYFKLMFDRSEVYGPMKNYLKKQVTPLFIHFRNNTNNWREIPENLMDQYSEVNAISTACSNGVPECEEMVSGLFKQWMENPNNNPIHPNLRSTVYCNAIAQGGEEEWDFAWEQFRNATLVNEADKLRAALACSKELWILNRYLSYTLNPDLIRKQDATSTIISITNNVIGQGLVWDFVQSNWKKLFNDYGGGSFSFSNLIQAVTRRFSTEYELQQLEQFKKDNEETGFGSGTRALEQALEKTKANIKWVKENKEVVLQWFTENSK
observable: IC50 (µM)

Solved cases below.
INSERT INTO results (compound, reported_result) VALUES
  ('NC(CC(=O)NCCCNC(=O)C(O)C(N)Cc1ccccc1)Cc1cc(F)ccc1F (stereo not shown) [drawing 31]', 0.02),
  ('NC(CC(=O)NCC1(CNC(=O)C(O)C(N)Cc2ccccc2)CCCCC1)Cc1cc(F)ccc1F (stereo not shown) [drawing 67]', 0.85),
  ('NC(CC(=O)Nc1ccc(NC(=O)C(O)C(N)Cc2ccccc2)cc1)Cc1cc(F)ccc1F (stereo not shown) [drawing 39]', 0.02),
  ('NC(CC(=O)NCCCCCNC(=O)C(O)C(N)Cc1ccccc1)Cc1ccccc1 (stereo not shown) [drawing 27]', 0.12),
  ('CC(C)(CNC(=O)CC(N)Cc1cc(F)ccc1F)CNC(=O)C(OC(=O)CCCc1ccccc1)C(N)Cc1ccccc1 (stereo not shown) [drawing 49]', 15),
  ('NC(CC(=O)N1CCCN(C(=O)C(O)C(N)Cc2ccccc2)CC1)Cc1cc(F)ccc1F (stereo not shown) [drawing 65]', 10),
  ('NC(CNC(=O)c1cccc(NC(=O)C(O)C(N)Cc2ccccc2)c1)Cc1cc(F)ccc1F (stereo not shown) [drawing 71]', 0.009),
  ('CCCCCCCCCCCCCCCC(=O)OC(C(=O)NCC(C)(C)CNC(=O)CC(N)Cc1cc(F)ccc1F)C(N)Cc1ccccc1 (stereo not shown) [drawing 43]', 0.03);

[P] CN(CCCNC(=O)C(O)C(N)Cc1ccccc1)C(=O)CC(N)Cc1cc(F)ccc1F (stereo not shown) [drawing 37]
[Q] CCCCCCCCCCCCCC(=O)OC(C(=O)NCC(C)(C)CNC(=O)CC(N)Cc1cc(F)ccc1F)C(N)Cc1ccccc1 (stereo not shown) [drawing 46]
[R] CC(C)(CNC(=O)CC(N)C(=O)N1CCSC1)CNC(=O)C(O)C(N)Cc1ccccc1 (stereo not shown) [drawing 30]
Q: Which order do these items take when sorted by rising IC50? List them. Use the labels to give the ranking in the order requested.
Result: P, R, Q
